Just for reference, patent US20090253654A1 is where these values come from.

- assayNotes: in vivo
- testSettings: SAM, mouse, in vivo
readoutKind: Kp

**Q:** Returns the measured Kp for the input molecule. Input: COc1ccc2c3c1OC1C[C@@H](OC(=O)c4ccccc4)C=C[C@@]31CCN(C)C2 (stereo partly shown) [GLN-1062]
**A:** > 19

====

- assayNotes: in vivo
- testSettings: mouse, in vivo, iv, 3 mg/kg
readoutKind: Kp

>  <compound>
CCC(C)C(=O)O[C@H]1C=C[C@@]23CCN(C)Cc4ccc(OC)c(c42)OC3C1 (stereo partly drawn)

>  <Kp>
7.5

$$$$
>  <compound>
COc1ccc2c3c1OC1C[C@@H](OC(=O)C4CC4)C=C[C@@]31CCN(C)C2 (stereo partly drawn)

>  <Kp>
1.1

$$$$
>  <compound>
COc1ccc2c3c1O[C@H]1C[C@@H](OC(=O)C(C)C)C=C[C@@]31CCN(C)C2

>  <Kp>
6.2

$$$$
>  <compound>
CCCCCC(=O)O[C@H]1C=C[C@@]23CCN(C)Cc4ccc(OC)c(c42)O[C@H]3C1

>  <Kp>
6.4

$$$$
>  <compound>
CCC(=O)O[C@H]1C=C[C@@]23CCN(C)Cc4ccc(OC)c(c42)O[C@H]3C1

>  <Kp>
6.9

$$$$

Attention now turns to another entry.
**Q:** Returns the measured Kp for the input compound. Input: COc1ccc2c3c1OC1C[C@@H](OC(=O)c4ccccc4)C=C[C@@]31CCN(C)C2 (stereo partly drawn)
**A:** 19.3
